# Test system: CCRIS mutagenicity, Ames/micronucleus/aberration tests
# measurement-notes: CCRIS mutagenicity studies
# condition-context: Test System: AMES SALMONELLA TYPHIMURIUM; Strain/Indicator: TA100; Metabolic Activation: RAT, LIVER, S-9, PHENOBARBITAL; Method: PREINCUBATION
Activity calls are given as the source filed them. The rule behind the calls is not given here.
Labels: active, inactive

>  <compound>
Nc1ccc(S(=O)(=O)O)cc1

>  <assigned-category>
inactive

$$$$
>  <compound>
C=C(C)C(=O)/C(=C\C(=O)O)OC

>  <assigned-category>
inactive

$$$$
>  <compound>
COc1cc2c(c3oc(=O)c4c(c13)CCC4=O)[C@@H]1C=CO[C@@H]1O2

>  <assigned-category>
active

$$$$
>  <compound>
COc1cc2c(c3oc(=O)c4c(c13)CCOC4=O)[C@@H]1C=CO[C@@H]1O2

>  <assigned-category>
active

$$$$
>  <compound>
O=S(=O)(O)c1ccc2cc(O)c(S(=O)(=O)O)cc2c1

>  <assigned-category>
inactive

$$$$
>  <compound>
C[C@]1(O)CC[C@H]2[C@@H]3CCC4=CC(=O)CC[C@]4(C)[C@@]3(F)[C@@H](O)C[C@@]21C

>  <assigned-category>
inactive

$$$$
>  <compound>
COc1cc2c(c3oc(=O)c4c(c13)CCC4=O)[C@@H]1CCO[C@@H]1O2

>  <assigned-category>
active

$$$$
>  <compound>
Cc1cc(N=Nc2ccccc2)c(N)cc1N

>  <assigned-category>
active

$$$$
>  <compound>
COC(=O)[C@@]12Oc3ccc(-c4ccc5c(c4O)C(O)=C4C(=O)C[C@H](C)[C@@H](O)[C@]4(C(=O)OC)O5)c(O)c3C(O)=C1C(=O)C[C@H](C)[C@H]2O

>  <assigned-category>
inactive

$$$$
>  <compound>
N#C/C=C/C#N

>  <assigned-category>
inactive

$$$$
>  <compound>
CC(=O)CN(C)N=O

>  <assigned-category>
active

$$$$
>  <compound>
Cc1cc(N=Nc2ccccc2C)c(N)cc1N

>  <assigned-category>
active

$$$$

====

# Tested on: CCRIS mutagenicity, Ames/micronucleus/aberration tests
# measurement-notes: CCRIS mutagenicity studies
# condition-context: Test System: AMES SALMONELLA TYPHIMURIUM; Strain/Indicator: TA102; Metabolic Activation: NONE; Method: STANDARD PLATE
Activity calls are given as the source filed them. The rule behind the calls is not given here.
Labels: TRUE for active, FALSE for inactive

>  <compound>
Cc1cccc(O)c1N

>  <assigned-category>
FALSE

$$$$
>  <compound>
Nc1nc2n[nH]nc2c(=O)[nH]1

>  <assigned-category>
FALSE

$$$$
>  <compound>
OC[C@H]1O[C@@H](n2cnc3c(NO)ncnc32)[C@H](O)[C@@H]1O

>  <assigned-category>
FALSE

$$$$
>  <compound>
OOC1CCCc2ccccc21 (configuration not stated)

>  <assigned-category>
FALSE

$$$$
>  <compound>
Cc1nc2c(c3[nH]c4ccccc4c13)C(=O)C(N1CC1)=CC2=O

>  <assigned-category>
TRUE

$$$$
>  <compound>
O=[As](O)(O)O

>  <assigned-category>
FALSE

$$$$
>  <compound>
COc1cccc2c1C(=O)c1c(O)c3c(c(O)c1C2=O)C[C@@](O)(C(=O)CO)C[C@@H]3O[C@H]1C[C@H](N)[C@H](O)[C@H](C)O1

>  <assigned-category>
TRUE

$$$$
>  <compound>
Nc1ccn([C@@H]2O[C@H](CO)[C@@H](O)C2O)c(=O)n1 (some centres not stated)

>  <assigned-category>
FALSE

$$$$
>  <compound>
CCOCC=O

>  <assigned-category>
FALSE

$$$$
>  <compound>
CC1C(C)(C)C2=C(C(=O)CCC2)C1(C)C (configuration not stated)

>  <assigned-category>
FALSE

$$$$
>  <compound>
[Cr]

>  <assigned-category>
FALSE

$$$$
>  <compound>
COc1cccc2c1C(=O)c1c(O)c3c(c(O)c1C2=O)C[C@@](O)(C(=O)CO)C[C@@H]3O[C@H]1C[C@H](N)[C@@H](O)[C@H](C)O1

>  <assigned-category>
TRUE

$$$$
>  <compound>
COc1cc([C@@H]2c3cc4c(cc3[C@H](O)[C@H]3COC(=O)[C@H]23)OCO4)cc(OC)c1OC

>  <assigned-category>
FALSE

$$$$
>  <compound>
CCN(CC)C(=O)/C(Cl)=C(\C)OP(=O)(OC)OC

>  <assigned-category>
FALSE

$$$$
>  <compound>
Clc1ccncc1

>  <assigned-category>
FALSE

$$$$
>  <compound>
CCN(CC)CCCC(C)Nc1ccnc2cc(Cl)ccc12 (configuration not stated)

>  <assigned-category>
FALSE

$$$$
>  <compound>
O=C(O)C(Cl)Cl

>  <assigned-category>
FALSE

$$$$
>  <compound>
CN1CCN(c2ccc3nc(-c4ccc5nc(-c6ccc(N(CCCl)CCCl)cc6)[nH]c5c4)[nH]c3c2)CC1

>  <assigned-category>
FALSE

$$$$
>  <compound>
Cc1ccc([N+]#N)cc1

>  <assigned-category>
TRUE

$$$$
>  <compound>
CN(C)C(=S)SSC(=S)N(C)C

>  <assigned-category>
FALSE

$$$$
>  <compound>
O=C([O-])c1cccnc1Nc1cccc(C(F)(F)F)c1.O=C([O-])c1cccnc1Nc1cccc(C(F)(F)F)c1.[Cu+2]

>  <assigned-category>
FALSE

$$$$
>  <compound>
CCNc1nc(Cl)nc(NCC)n1

>  <assigned-category>
FALSE

$$$$
>  <compound>
O=C(O)/C(Cl)=C(\C(=O)O)C(Cl)Cl

>  <assigned-category>
FALSE

$$$$
>  <compound>
[Co]

>  <assigned-category>
FALSE

$$$$
>  <compound>
Nc1ncn([C@@H]2O[C@H](CO)[C@@H](O)[C@H]2O)c(=O)n1

>  <assigned-category>
TRUE

$$$$
>  <compound>
Cc1nc2ccccc2s1

>  <assigned-category>
FALSE

$$$$
>  <compound>
O=C([O-])c1ccccn1.O=C([O-])c1ccccn1.O=C([O-])c1ccccn1.[Cr+3]

>  <assigned-category>
FALSE

$$$$
>  <compound>
CC(=O)n1ccnc1

>  <assigned-category>
FALSE

$$$$
>  <compound>
O=c1cc(-c2ccccc2)cc(-c2ccccc2)n1/N=C/c1ccc([N+](=O)[O-])o1

>  <assigned-category>
FALSE

$$$$
>  <compound>
C[C@]1(O)CC[C@H]2[C@@H]3CCC4=CC(=O)CC[C@]4(C)[C@@]3(F)[C@@H](O)C[C@@]21C

>  <assigned-category>
FALSE

$$$$
>  <compound>
O=C(O)COc1ccc(Cl)cc1

>  <assigned-category>
FALSE

$$$$
>  <compound>
CN1CCN(c2ccc3nc(-c4ccc5nc(-c6ccc(O)cc6)[nH]c5c4)[nH]c3c2)CC1

>  <assigned-category>
FALSE

$$$$
>  <compound>
ClCc1ccncc1

>  <assigned-category>
FALSE

$$$$
>  <compound>
[Zn]

>  <assigned-category>
FALSE

$$$$
>  <compound>
CCC(CCC(C)O)COC(=O)c1ccccc1C(=O)O (configuration not stated)

>  <assigned-category>
FALSE

$$$$
>  <compound>
C(CCC1CO1)CC1CO1 (configuration not stated)

>  <assigned-category>
TRUE

$$$$
>  <compound>
CC1COc2c(N3CCN(C)CC3)c(F)cc3c(=O)c(C(=O)O)cn1c23 (configuration not stated)

>  <assigned-category>
TRUE

$$$$
>  <compound>
C=C(C)C(=O)OCCO

>  <assigned-category>
FALSE

$$$$
>  <compound>
CCOP(=S)(OCC)Oc1cnc2ccccc2n1

>  <assigned-category>
FALSE

$$$$
>  <compound>
CCO[Si](OCC)(OCC)OCC

>  <assigned-category>
FALSE

$$$$
>  <compound>
COc1cccc(N)c1

>  <assigned-category>
FALSE

$$$$
>  <compound>
COC(=O)CCl

>  <assigned-category>
FALSE

$$$$
>  <compound>
CC(C)(C)NC[C@H](O)COc1ccccc1C1CCCC1

>  <assigned-category>
FALSE

$$$$
>  <compound>
[Cl][Mn][Cl]

>  <assigned-category>
TRUE

$$$$
>  <compound>
CCn1cc(C(=O)O)c(=O)c2cc(F)c(N3CCN(C)CC3)cc21

>  <assigned-category>
TRUE

$$$$
>  <compound>
CC(C)CCC[C@@H](C)[C@H]1CC[C@H]2[C@@H]3C(=O)C=C4C[C@@H](O)CC[C@]4(C)[C@H]3CC[C@]12C

>  <assigned-category>
FALSE

$$$$
>  <compound>
CC(=O)c1cc2c(cc1C)C(C)(C)C(C)CC2(C)C (configuration not stated)

>  <assigned-category>
FALSE

$$$$
>  <compound>
CC(C)NCC(O)COc1cccc2c1C=CC2 (configuration not stated)

>  <assigned-category>
FALSE

$$$$
>  <compound>
O=C1OCC(C(Cl)Cl)=C1Cl

>  <assigned-category>
TRUE

$$$$
>  <compound>
CC(=O)CC(=O)Nc1ccccc1C

>  <assigned-category>
FALSE

$$$$
>  <compound>
CCCCOC(=O)CCCCCCCCC(=O)OCCCC

>  <assigned-category>
FALSE

$$$$
>  <compound>
CC/C(=C(/CC)c1ccc(O)cc1)c1ccc(O)cc1

>  <assigned-category>
FALSE

$$$$
